Biological target: progesterone receptor (PR) (Homo sapiens)
Construct: of the progesterone receptor (PR, amino acids 680-933)
Sequence (P06401 680-933): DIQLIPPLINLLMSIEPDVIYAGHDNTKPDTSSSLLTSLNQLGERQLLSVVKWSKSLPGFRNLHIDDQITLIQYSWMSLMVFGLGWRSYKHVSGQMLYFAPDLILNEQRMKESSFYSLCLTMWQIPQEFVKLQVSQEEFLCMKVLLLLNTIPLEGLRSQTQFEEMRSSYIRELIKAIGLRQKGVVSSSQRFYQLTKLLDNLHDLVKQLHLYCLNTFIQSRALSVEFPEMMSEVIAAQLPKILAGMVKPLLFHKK
Test: Cellular in vitro assay, GAL4-PR chimera luciferase reporter in CHO K1 cells (selectivity)
Conditions: antagonism vs progesterone; CHO K1 GAL4-PR LBD luciferase reporter
Assign labels as follows, please: Condition met for IC50 below 7 µM; Condition not met for IC50 equal to or exceeding 7 µM.

[
  {
    "molecule": "Cc1cc(Cl)ccc1C(CCO)c1c[nH]c2c(CS(C)(=O)=O)cccc12 (stereo not drawn)",
    "category": "Condition met"
  },
  {
    "molecule": "CSCc1cccc2c(C(c3ccc(F)cc3)c3ccc(Cl)cc3)c[nH]c12 (stereo not drawn)",
    "category": "Condition not met"
  },
  {
    "molecule": "CSCc1cc(F)cc2c(C3(C4CC4)CCc4cc(F)ccc43)c[nH]c12 (stereo not drawn)",
    "category": "Condition met"
  }
]

Inquiry: Is it true that IC50 reported for CS(=O)(=O)Cc1cccc2c(C(c3ccc(Cl)cc3Cl)C3CC3(F)F)c[nH]c12 (single isomer, unassigned) [Example 325-2] is less than 7 µM?
Reply text: Condition met

Inquiry: Is it true that IC50 reported for CS(=O)(=O)Cc1cccc2c(C3(C4CC4)CCc4cc(F)ccc43)c[nH]c12 (stereo not drawn) [Example 107] is less than 7 µM?
Reply text: Condition met

Inquiry: Is it true that IC50 reported for C[S+]([O-])Cc1cccc2c(C(c3c(F)cc(Cl)cc3F)C3CC3)c[nH]c12 (mixture of isomers) is less than 7 µM?
Reply text: Condition not met

Inquiry: Is it true that IC50 reported for CS(=O)(=O)Cc1cccc2c(C(CCC#N)c3ccc(Cl)cc3F)c[nH]c12 (single isomer, unassigned) is less than 7 µM?
Reply text: Condition not met

Inquiry: Is it true that IC50 reported for CCC(CCC#N)(c1ccc(Cl)cc1)c1c[nH]c2c(CSC)cccc12 (stereo not drawn) is less than 7 µM?
Reply text: Condition met

Inquiry: Is it true that IC50 reported for CS(=O)(=O)Cc1cccc2c(C3(C4CC4)CCc4cc(F)ccc43)c[nH]c12 (single isomer, unassigned) [Example 107-1] is less than 7 µM?
Reply text: Condition not met

Inquiry: Is it true that IC50 reported for CSCc1cc(F)cc2c(C(c3ccc(C)cc3)C3CC3C#N)c[nH]c12 (stereo not drawn) is less than 7 µM?
Reply text: Condition met

Inquiry: Is it true that IC50 reported for C[S+]([O-])Cc1cccc2c(C3(C4CC4)CCc4cc(F)ccc43)c[nH]c12 (mixture of isomers) is less than 7 µM?
Reply text: Condition met

Inquiry: Is it true that IC50 reported for CS(=O)(=O)Cc1cccc2c(C(CCC#N)c3ccc4ccccc4c3)c[nH]c12 (stereo not drawn) is less than 7 µM?
Reply text: Condition met

Inquiry: Is it true that IC50 reported for CS(=O)(=O)Cc1cccc2c(C(c3ccc(Cl)cc3)C3CC3C#N)c[nH]c12 (stereo not drawn) is less than 7 µM?
Reply text: Condition not met

Inquiry: Is it true that IC50 reported for CS(=O)(=O)Cc1cccc2c(C(c3ccc(Cl)cc3Cl)C3CC3)c[nH]c12 (stereo not drawn) is less than 7 µM?
Reply text: Condition met

====

target: CYP3A4 (Homo sapiens, UniProt P08684); construct: using human liver microsomes (pool from various individuals); from tissue; host or cells: human liver microsomes (pool from various individuals); experiment: Assay to assess irreversible CYP3A4 inhibition (mechanism-based inhibition) in human liver microsomes; format: in vitro ADME; details: CYP3A4 activity as 6β-hydroxytestosterone formation, 2-20 μM
Sequence (P08684 whole entry): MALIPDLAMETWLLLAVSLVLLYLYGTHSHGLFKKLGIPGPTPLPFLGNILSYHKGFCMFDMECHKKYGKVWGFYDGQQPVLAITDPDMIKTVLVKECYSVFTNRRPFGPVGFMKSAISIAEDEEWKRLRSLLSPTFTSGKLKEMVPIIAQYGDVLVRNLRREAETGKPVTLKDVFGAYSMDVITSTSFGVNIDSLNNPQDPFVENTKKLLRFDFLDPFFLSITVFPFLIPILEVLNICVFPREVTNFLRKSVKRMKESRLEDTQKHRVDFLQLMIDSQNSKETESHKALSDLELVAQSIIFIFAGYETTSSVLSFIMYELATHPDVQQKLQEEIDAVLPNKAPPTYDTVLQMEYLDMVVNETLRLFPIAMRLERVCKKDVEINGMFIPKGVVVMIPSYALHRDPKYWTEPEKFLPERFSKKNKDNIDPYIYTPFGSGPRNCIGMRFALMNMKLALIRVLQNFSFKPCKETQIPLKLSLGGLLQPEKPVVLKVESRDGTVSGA
reported.property: Partition ratio r

[
  {
    "compound": "CS(=O)(=O)Cc1cc(F)cc2c(C(c3ccc(C(F)(F)F)cc3F)C3CC3C#N)c[nH]c12 (single isomer, unassigned)",
    "Partition ratio r": ">200"
  },
  {
    "compound": "CS(=O)(=O)Cc1cccc2c(C(c3ccc(F)cc3)c3ccc(C(F)(F)F)cc3)c[nH]c12 (stereo not shown)",
    "Partition ratio r": ">500"
  },
  {
    "compound": "CS(=O)(=O)Cc1cc(F)cc2c(C(c3ccc(Cl)cc3F)C3CC3C#N)c[nH]c12 (single isomer, unassigned)",
    "Partition ratio r": ">200"
  }
]

What the record says about CS(=O)(=O)Cc1cccc2c(C(CCC#N)c3ccc4c(c3)OC(F)(F)O4)c[nH]c12 (stereo not shown) : Partition ratio r is >500

====

target: human mineralocorticoid receptor (MR) (Homo sapiens, UniProt P08235); experiment: Cellular in vitro assay, GAL4-MR chimera luciferase reporter in CHO K1 cells (inhibitory MR activity); settings: antagonism vs aldosterone; CHO K1 GAL4-MR LBD luciferase reporter
Sequence (P08235 734-984 limits assumed): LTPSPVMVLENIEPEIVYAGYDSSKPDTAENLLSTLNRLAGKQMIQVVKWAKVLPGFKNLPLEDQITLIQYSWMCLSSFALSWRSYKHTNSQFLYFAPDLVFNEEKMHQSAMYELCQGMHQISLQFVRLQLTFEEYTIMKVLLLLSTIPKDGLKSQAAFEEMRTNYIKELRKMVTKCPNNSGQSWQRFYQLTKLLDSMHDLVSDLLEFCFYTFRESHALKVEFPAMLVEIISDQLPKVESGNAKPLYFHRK
Assign labels as follows, please: Yes for IC50 below 0.09 µM; No for IC50 equal to or exceeding 0.09 µM.

Some entries whose results are on file:
[
  {
    "compound": "CS(=O)(=O)Cc1cccc2c(C(CCC#N)c3ccc(Cl)cc3F)c[nH]c12 (single isomer, unassigned)",
    "category": "Yes"
  },
  {
    "compound": "CC(CCC#N)(c1ccc(Cl)cc1)c1c[nH]c2c(CS(C)(=O)=O)cccc12 (stereo not drawn)",
    "category": "Yes"
  },
  {
    "compound": "CS(=O)(=O)Cc1cccc2c(C(CCC#N)c3ccc(C(F)(F)F)cc3F)c[nH]c12 (stereo not drawn)",
    "category": "No"
  },
  {
    "compound": "CSCc1cccc2c(C(CCC#N)c3ccc(Cl)cc3F)c[nH]c12 (single isomer, unassigned)",
    "category": "Yes"
  }
]

We next turn to a different compound, shown below.
Inquiry: Is it true that IC50 reported for C[S+]([O-])Cc1cccc2c(C(CCC#N)c3ccc(Cl)cc3)c[nH]c12 (single isomer, unassigned) is less than 0.09 µM?
Reply text: No

====

Reported IC50 by item:
Target: progesterone receptor (PR) (Homo sapiens, UniProt P06401)
Construct: of the progesterone receptor (PR, amino acids 680-933)
Sequence (P06401 680-933): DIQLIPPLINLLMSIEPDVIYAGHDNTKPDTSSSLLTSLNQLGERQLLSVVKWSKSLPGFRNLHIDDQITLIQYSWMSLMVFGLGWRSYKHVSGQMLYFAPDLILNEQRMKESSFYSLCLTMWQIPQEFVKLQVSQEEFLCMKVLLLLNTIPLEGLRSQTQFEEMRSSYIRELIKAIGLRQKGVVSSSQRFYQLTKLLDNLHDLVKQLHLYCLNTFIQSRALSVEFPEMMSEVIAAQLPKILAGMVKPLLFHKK
Assay: Cellular in vitro assay, GAL4-PR chimera luciferase reporter in CHO K1 cells (selectivity)
Conditions: antagonism vs progesterone; CHO K1 GAL4-PR LBD luciferase reporter
Please state the figure in µM; there is no need to write the unit.

What the record says about CS(=O)(=O)Cc1cc(F)cc2c(C(c3ccc(C(F)(F)F)cc3F)C3CC3C#N)c[nH]c12 (single isomer, unassigned) : IC50 is 10

====

biological target: CYP3A4 (Homo sapiens); construct: using human liver microsomes (pool from various individuals); from tissue; host or cells: human liver microsomes (pool from various individuals); experiment: CYP inhibition assay with human liver microsomes; assay type: in vitro ADME; settings: 30 min preincubation with test compound before substrate, read-out: CYP 3A4 Preincubation, 30 min.
pIC50: −log10 of the molar value.
Reported pIC50 by item:

Below, 3 compounds whose answers are already recorded.
[
  {
    "compound": "CS(=O)(=O)Cc1cccc2c(C(c3c(F)cc(Cl)cc3F)C3CC3)c[nH]c12 (stereo not shown)",
    "test.target": "CYP3A4 (Homo sapiens)",
    "recorded.value": "< 4.70"
  },
  {
    "compound": "CS(=O)(=O)Cc1cccc2c(C(c3ccc(C(F)(F)F)cc3)C3CC3)c[nH]c12 (stereo not shown)",
    "test.target": "CYP3A4 (Homo sapiens)",
    "recorded.value": "< 4.70"
  },
  {
    "compound": "CS(=O)(=O)Cc1cccc2c(C(c3ccc(C(F)(F)F)cc3Cl)C3CC3)c[nH]c12 (stereo not shown)",
    "test.target": "CYP3A4 (Homo sapiens)",
    "recorded.value": "< 4.70"
  }
]

# next compound below
Record CS(=O)(=O)Cc1cccc2c(C(c3ccc(F)cc3)c3ccc(C(F)(F)F)cc3)c[nH]c12 (stereo not shown) has CYP3A4 (Homo sapiens) pIC50 equal to < 4.70
